conditions: human gut metagenome, 24 h, 2 µM; also: call rule not given here
PROPERTY MEASURED: Bacterial Biotransformation

molecule=Nc1ccc(/N=N/c2ccccc2)c(N)n1 result="Compound metabolized"
molecule=COc1cc2c(c(OC)c1OC)-c1ccc(OC)c(=O)cc1[C@@H](NC(C)=O)CC2 result="Compound NOT metabolized"
molecule=NC12CC3CC(CC(C3)C1)C2 result="Compound NOT metabolized"
molecule="CCN(CC)CC#CCOC(=O)C(O)(c1ccccc1)C1CCCCC1.Cl (stereo not drawn) [OXYBUTYNIN CHLORIDE]" result="Compound metabolized"
molecule="CCN1CCCC1CNC(=O)c1cc(S(N)(=O)=O)ccc1OC (stereo not drawn) [SULPIRIDE]" result="Compound NOT metabolized"
molecule=O=c1n(CCCN2CCN(c3cccc(Cl)c3)CC2)nc2ccccn12 result="Compound NOT metabolized"
molecule="CC(C)NCC(O)COc1ccc(CCOCC2CC2)cc1 (stereo not drawn)" result="Compound NOT metabolized"
molecule="CN1C[C@H](C(=O)N[C@]2(C)O[C@@]3(O)[C@@H]4CCCN4C(=O)[C@H](Cc4ccccc4)N3C2=O)C=C2c3cccc4[nH]cc(c34)C[C@H]21.CN1C[C@H](C(=O)N[C@]2(C)O[C@@]3(O)[C@@H]4CCCN4C(=O)[C@H](Cc4ccccc4)N3C2=O)C=C2c3cccc4[nH]cc(c34)C[C@H]21.O=C(O)C(O)C(O)C(=O)O [ERGOTAMINE TARTRATE]" result="Compound NOT metabolized"

====

assay: The drug is tested on Z-016 corresponding to mouse gut metagenome with ENA study accession number: PRJEB37062 and ENA sample accession number: ERS12561815 for biotransformation under anaerobic condition. The drug concentrations were measured over 9 timepoints collected between 0 and 24 hours of incubation by liquid-chromatography-coupled mass spectrometry (LC–MS); conditions: 2 µM
PROPERTY MEASURED: Bacterial Biotransformation

molecule="CCOc1ccc(NC(C)=O)cc1 [PHENACETIN]" result="Compound NOT metabolized"
molecule="COc1c2occc2cc2ccc(=O)oc12 [METHOXSALEN]" result="Compound metabolized"
molecule="CN1CCN(C(=O)O[C@H]2c3nccnc3C(=O)N2c2ccc(Cl)cn2)CC1 [ESZOPICLONE]" result="Compound NOT metabolized"
molecule="CN(C)CCc1c[nH]c2ccc(Cn3cncn3)cc12.O=C(O)c1ccccc1 [RIZATRIPTAN BENZOATE]" result="Compound NOT metabolized"
molecule="NC(=O)N1c2ccccc2CC(=O)c2ccccc21 [OXCARBAZEPINE]" result="Compound NOT metabolized"
molecule="CC(C)(Oc1ccc(CCNC(=O)c2ccc(Cl)cc2)cc1)C(=O)O [BEZAFIBRATE]" result="Compound metabolized"
molecule="Nc1c2c(nc3ccccc13)CCCC2 [TACRINE]" result="Compound NOT metabolized"
molecule="COc1ccc2c(c1OC)C(=O)O[C@@H]2[C@H]1c2c(cc3c(c2OC)OCO3)CCN1C [NOSCAPINE]" result="Compound metabolized"
molecule="COc1cc2c(c(OC)c1OC)-c1ccc(OC)c(=O)cc1[C@@H](NC(C)=O)CC2 [COLCHICINE]" result="Compound metabolized"

====

details: human gut metagenome, 24 h, 2 µM
Where a SMILES comes first, the peptide text is derived from it. [ ]: non-standard residue; d: D form. pGlu = O=C1CC[C@@H](C(=O)O)N1; Thz = O=C(O)[C@@H]1CSCN1
PROPERTY MEASURED: Bacterial Biotransformation

compound="O=c1[nH]c2ccccc2n1C1CCN(CCCC(c2ccc(F)cc2)c2ccc(F)cc2)CC1 [PIMOZIDE]" property_measured="Bacterial Biotransformation" result="Compound NOT metabolized"
compound=CC(C)(C#N)c1cc(Cn2cncn2)cc(C(C)(C)C#N)c1 property_measured="Bacterial Biotransformation" result="Compound NOT metabolized"
compound="CS(=O)(=O)O.O.O.O.O=C1Cc2cc(CCN3CCN(c4nsc5ccccc45)CC3)c(Cl)cc2N1 [ZIPRASIDONE MESYLATE]" property_measured="Bacterial Biotransformation" result="Compound metabolized"
compound=CCC(=O)NCC[C@@H]1CCc2ccc3c(c21)CCO3 property_measured="Bacterial Biotransformation" result="Compound metabolized"
compound=Fc1ccc([C@@H]2CCNC[C@H]2COc2ccc3c(c2)OCO3)cc1 property_measured="Bacterial Biotransformation" result="Compound NOT metabolized"
compound=CC[C@H](C)C(=O)O[C@H]1C[C@@H](C)C=C2C=C[C@H](C)[C@H](CC[C@@H]3C[C@@H](O)CC(=O)O3)[C@H]21 property_measured="Bacterial Biotransformation" result="Compound NOT metabolized"
compound="CC(C)(C)NC[C@H](O)COc1ccccc1C1CCCC1.CC(C)(C)NC[C@H](O)COc1ccccc1C1CCCC1.O=S(=O)(O)O [PENBUTOLOL SULFATE]" property_measured="Bacterial Biotransformation" result="Compound metabolized"
compound="O=C1CC[C@@H](C(=O)N2CSC[C@H]2C(=O)O)N1 [PIDOTIMOD] ([pGlu]-[Thz]-OH)" property_measured="Bacterial Biotransformation" result="Compound NOT metabolized"
